Procedure details: Cellular viability qHTS for adrenocortical cancer (ACC) cell line SW-13 (AID 1963989);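 also: cells grown in serum-free medium with ITS supplement; % is scaled to controls: 0 for no effect and ±100 for the full control effect; nearly all actives have a fitted effect of over 65% in size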
Condition context: SW-13 ACC cells viability, CellTiter-Glo, 48 h; stronger effect = lower value
Records with an inconclusive call do not appear.
Metric: activity (max response) (%)
One number for each entry, in %.

Recorded results for 5 compounds are shown here.
{"columns": ["Compound", "activity (max response) / %"],
 "data": [
  ["O=C1OC(COc2ccccc2[N+](=O)[O-])CC1Cc1ccccc1 (stereo not given)", -13.4],
  ["CC(C)(Cc1c[nH]c2ccccc12)NCC(O)COc1ccccc1C#N (stereo not given)", -3.72],
  ["COc1ccc(-n2cnc3cc(C(=O)N4CCCCC4)ccc32)cc1", -10.1],
  ["N#CCC1(n2cc(-c3ncnc4[nH]ccc34)cn2)CN(C2CCN(C(=O)c3ccnc(C(F)(F)F)c3F)CC2)C1", -10.7],
  ["C[C@]12CCC(=O)C=C1CC[C@@H]1[C@@H]2C(=O)C[C@@]2(C)[C@H]1CC[C@]2(O)C(=O)CO", 7.27]
]}

# return activity (max response) for each item in the list
1. Cc1noc(C)c1-c1ccc(-c2cc(C(N)=O)c(NC(N)=O)s2)c(O[C@H]2CCNC2)c1
2. Cc1ccc(=O)n(-c2ccccc2)c1

Result ::
1. -22.5
2. 13.5

Dear colleague, could you please provide activity (max response) for the compounds listed below?
1. CC(=O)O[C@@H]1CC2C3CCc4cc(OC(=O)c5ccccc5)ccc4C3CCC2(C)[C@H]1OC(C)=O (stereo not given in full)
2. Cc1ccc(C2=Nc3ccc(Cl)cc3OC2)cc1
3. CN1C(CSCC(F)(F)F)Nc2cc(Cl)c(S(N)(=O)=O)cc2S1(=O)=O (stereo not given)

Result ::
1: 3.65; 2: -18.7; 3: -6.86

---

Procedure details: Quantitative highthroughput screen to assess conditional lethalithy of NOMO1 cells grown in Human Plasma-Like Medium with dialyzed fetal bovine serum (HPLM+ds) (AID 1963878); also: nearly all actives have a fitted effect of over 35% in size;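 as to viability: 100% = DMSO wells and 0% = empty wells on each plate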
Condition context: NOMO1 AML cells in HPLM+ds, CellTiter-Glo viability, 48 h; series mostly up to 45.8 µM
Inconclusive results are not listed. Active and inactive are the calls of the source. Calls come from the whole dose curve; as a rule, active = well fitted cell-killing curve with a large enough effect; inconclusive = small, poorly fitted or top-dose-only effect, or effect the other way; inactive = no such curve, though single readings can be large or run the other way.
Please answer using one outcome listed in active, inactive

Reference set (3 entries):
{"columns": ["Compound", "Category label"],
 "data": [
  ["Cc1nc(N)ncc1-c1nc(N2CCOCC2)c2sc(C(C)(C)O)cc2n1", "active"],
  ["N=c1ccn2c(n1)O[C@H]1[C@@H](O)[C@@H](CO)O[C@H]12", "active"],
  ["CC(C=CC1=C(C)CCCC1(C)C)=CC=CC(C)=CC(=O)Nc1ccc(O)cc1", "active"]
]}

Query :: Hi team, can someone confirm the assay call for Cc1c(C)c2c(c(C)c1O)CCC(C)(COc1ccc(CC3SC(=O)NC3=O)cc1)O2 (stereo not given) ?
Result :: inactive

Query :: Returns: the outcome recorded for COCCCOc1ccnc(CS(=O)c2nc3ccccc3[nH]2)c1C (stereo not given) in this assay.
Result :: inactive

Query :: Test call for this compound, please: CC(C)c1noc(N2CCC(COc3ccc(-c4ccc(S(C)(=O)=O)cc4)nc3)CC2)n1
Result :: inactive

Query :: Call for entry CCc1c(O)cc(O)c(C(=O)c2ccc(OCCN3CCOCC3)c(OC)c2)c1CC(=O)N(CCOC)CCOC :
Result :: active

Query :: Called result for CC1=CC(=O)c2ccccc2C1=O
Result :: inactive

Query :: Test call for this compound, please: COc1ccc(CC2c3cc(OC)c(OC)cc3CC[N+]2(C)CCC(=O)OCCCCCOC(=O)CC[N+]2(C)CCc3cc(OC)c(OC)cc3C2Cc2ccc(OC)c(OC)c2)cc1OC (stereo not given)
Result :: active

Query :: Hey, what did the test say about COC(=O)C1=C(C)NC(C)=C(C(=O)OC(C)C)C1c1cccc2nonc12 (stereo not given) ?
Result :: inactive

Query :: Check the results log: what was the call for CCC(=O)NCC[C@@H]1CCc2ccc3c(c21)CCO3 ?
Result :: inactive

---

Procedure details: Viability qHTS for spleen associated tyrosine kinase inhibitor (SYKi) drug resistant MV4-11 cells (AID 1963824); also: nearly all actives have a fitted effect of over 35% in size
Condition context: SYKi-resistant MV4-11 viability, CellTiter-Glo, 72 h; series mostly up to 45 µM
Records with an inconclusive call do not appear. Calls of active or inactive are those of the source. Calls follow the shape of the dose curve; as a rule, active = well fitted cell-killing curve with a large enough effect; inconclusive = small, poorly fitted or top-dose-only effect, or effect the other way; inactive = no such curve, though single readings can be large or run the other way.
// allowed return values: active, inactive

Here's what some known entries look like.
{"columns": ["Molecule", "Category label"],
 "data": [
  ["Cc1cc(Nc2nn(-c3ccccc3)c(=O)c3ccccc23)n[nH]1", "active"],
  ["C=CC(C)(C)C12C=C(OC)C(=O)N3C(C(C)C)C(=O)NC31N(OC)c1ccccc12 (centres undefined)", "active"],
  ["CC1=CC(=O)C(=C(C)C)CC2C1CCC2(C)O (centres undefined)", "inactive"]
]}

Query :: Identify the outcome logged in this assay for the molecule shown: CN1CCC[C@@H]1c1cccnc1
Result :: inactive

Query :: # outcome recorded in this test, key = COc1cc(C2c3cc4c(c(O)c3CC(CO)C2C(=O)O)OCO4)cc(OC)c1O (centres undefined)
Result :: active

Query :: Per the records of this test, what outcome belongs to O=c1ncn2nc(Sc3ccc(F)cc3F)ccc2c1-c1c(Cl)cccc1Cl ?
Result :: active

Query :: State the result this test recorded for COc1ccc(CC2c3cc(OC)c(OC)cc3CC[N+]2(C)CCC(=O)OCCCCCOC(=O)CC[N+]2(C)CCc3cc(OC)c(OC)cc3C2Cc2ccc(OC)c(OC)c2)cc1OC (centres undefined) .
Result :: active

Query :: So what was the verdict on CCCc1cc(C(=O)N[C@H](Cc2ccc(-c3cccc(OC(F)(F)F)c3)nc2)C(=O)N[C@@H]2CCNC2)sc1C in this test?
Result :: active

Query :: I'd appreciate the recorded outcome for COc1ccc2c(c1)C(c1ccc(F)cc1)=C(CN1CCCC1)CO2 from this test.
Result :: active

---

Procedure details: Viability qHTS for spleen associated tyrosine kinase inhibitor (SYKi) naive MV4-11 cells (AID 1963823); also: nearly all actives have a fitted effect of over 40% in size
Condition context: MV4-11 AML viability, CellTiter-Glo luminescence, 72 h; series mostly up to 45 µM
Results filed as inconclusive are left out. Activity calls are given as the source filed them. Calls follow the shape of the dose curve; as a rule, active = well fitted cell-killing curve with a large enough effect; inconclusive = small, poorly fitted or top-dose-only effect, or effect the other way; inactive = no such curve, though single readings can be large or run the other way.
Metric: viability (% of control)

{"columns": ["Compound", "viability (% of control)"],
 "data": [
  ["NCCNCCNCCNCCN", "121% [at 9.25 µM] (inactive)"],
  ["C/C=C(\\C)C(=O)OC[C@H]1O[C@@H](O[C@H]2[C@@H](O[C@H]3O[C@H](COC(=O)/C(C)=C/C)[C@@H](O)[C@H](O)[C@H]3O[C@@H]3O[C@H](COC(=O)/C(C)=C/C)[C@@H](O)[C@H](OC(=O)/C(C)=C/C)[C@H]3O)O[C@H](COC(=O)/C(C)=C/C)[C@@H](O)[C@@H]2O)[C@H](O)[C@@H](O)[C@@H]1O", "68.7% [at 9.25 µM] (inactive)"],
  ["C[C@@H]1CC[C@]2(C(=O)O[C@@H]3O[C@H](CO[C@@H]4O[C@H](CO)[C@@H](O[C@@H]5O[C@@H](C)[C@H](O)[C@@H](O)[C@H]5O)[C@H](O)[C@H]4O)[C@@H](O)[C@H](O)[C@H]3O)CC[C@]3(C)C(=CCC4[C@@]5(C)C[C@@H](O)[C@H](O)[C@@](C)(CO)C5CC[C@]43C)C2[C@H]1C (stereo not given in full)", "87.5% [at 9.25 µM] (inactive)"],
  ["C[C@H](N)C(=O)N[C@@H](Cc1ccc(O)cc1)C(=O)N1CCC[C@H]1C(=O)NCC(=O)N[C@@H](CCCCN)C(=O)N[C@@H](Cc1ccccc1)C(N)=O", "94.9% [at 9.25 µM] (inactive)"]
]}

Could I get viability (% of control) for every one of these entries?
1. N[C@@H](CSSC[C@H](N)C(=O)O)C(=O)O
2. COc1cc2c(cc1OC)CN(CCc1ccc(-n3nnc(-c4cc(OC)c(OC)cc4NC(=O)c4cc(=O)c5ccccc5o4)n3)cc1)CC2
3. C[C@@H]1CC[C@]2(C(=O)O[C@@H]3O[C@H](CO[C@@H]4O[C@H](CO)[C@@H](O)[C@H](O)[C@H]4O)[C@@H](O)[C@H](O)[C@H]3O)CC[C@]3(C)C(=CCC4[C@@]5(C)CC[C@H](O)[C@](C)(C(=O)O)C5CC[C@]43C)[C@@H]2[C@]1(C)O (stereo not given in full)
4. CC1OC(OC2C(O)C(C(=O)O)OC(OC3CCC4(C)C(CCC5(C)C4C=CC4=C6CC(C)(C)CC(O)C6(C)CCC45C)C3(C)C)C2OC2OCC(O)C(O)C2O)C(O)C(O)C1O (stereo not given)
5. C=C(C)C1CCC2(C(=O)OC3OC(COC4OC(CO)C(O)C(O)C4O)C(OC4OC(C)C(O)C(O)C4O)C(O)C3O)CCC3(C(=O)O)C(CCC4C5(C)CCC(=O)C(C)(C)C5CCC43C)C12 (stereo not given)
6. CC1(C)CC[C@]2(C(=O)O[C@@H]3O[C@H](CO)[C@@H](O)[C@H](O)[C@H]3O)CC[C@]3(C)C(=CCC4[C@@]5(C)C[C@H](O)[C@H](O[C@@H]6O[C@H](C(=O)O)[C@@H](O)[C@H](O)[C@H]6O)[C@@](C)(CO)C5CC[C@]43C)C2C1 (stereo not given in full)

Result ::
68.4% [at 0.588 µM] (inactive)
79.1% [at 0.588 µM] (inactive)
70.3% [at 9.25 µM] (inactive)
89.1% [at 9.25 µM] (inactive)
84.8% [at 9.25 µM] (inactive)
24.2% [at 9.25 µM] (inactive)

This collection of values is drawn from PubChem BioAssay (NCATS).
